- Test system: NCI-H226 lung
- procedure_details: NCI tumour cell line growth inhibition, 48 h
# TGI per entry

In the examples that follow, each entry is paired with its recorded TGI.
molecule | assay_readout | test_result
CC(C)(C)OC(=O)CC(NC(=O)OC(C)(C)C)C(=O)N[C@@H]1CCCC[C@H]1C(=O)OCc1ccccc1 (stereo partly drawn) | TGI | 60.3 µM
CC(=O)CCc1ccc(OC2OC(COC(=O)c3cc(O)c(O)c(O)c3)C(O)C(O)C2OC(=O)/C=C/c2ccccc2)cc1 (stereo not drawn) | TGI | 37 µM
C=C1[C@H](OC(=O)C(C)C)[C@]23CC4(O)[C@@H]5[C@@]6(C)CCC[C@]57C([C@@H]2C[C@@]1(O)[C@H](O)[C@@H]73)N4C6 | TGI | > 100 µM

Next molecule, please.
-- ask Missing value: TGI, NCI-H226 lung, entry CC(C)Nc1ccc(Nc2ccccc2)cc1 . Fill in?
-- reply 69.3 µM

###

- Tested on: SF-539 CNS
- procedure_details: NCI tumour cell line growth inhibition, 48 h
Listing of entries alongside the reported TGI.

Examples from the recorded data:
molecule | TGI
C#CCn1ncc2c(SC)ncnc21 | > 100 µM
N#C/C(=N\Nc1ccc(Cl)cc1)C(=O)Nc1cc(-c2ccccc2)nn1-c1ccccc1 | > 100 µM
O=C(O)C1=CCCc2ccc3ccccc3c21 | > 100 µM
CCOC(=O)N1C2C=C(C)C(ON2C(=O)c2ccccc2)C2C(C)C(=O)N21 (centres undefined) | > 100 µM
C/C(=C\c1ccccc1)C(=O)NCc1ccc(C(=O)NCCC(C)C)cc1 | > 100 µM

-- ask Which TGI reading was recorded for the molecule Cc1nc2c(n1C)C(=O)c1nc(CBr)[nH]c(=O)c1C2=O ?
-- reply > 100 µM

-- ask Any idea what TGI was measured for Nc1cc2c(nnn2C2OC(COCc3ccccc3)C(OCc3ccccc3)C2OCc2ccccc2)c(=O)[nH]1 (centres undefined) ?
-- reply 69.5 µM

-- ask Please look up its TGI: COc1ccc(C2CC(c3cccc(Nc4ccncc4)c3)=NN2c2ccc(Cl)cc2)cc1 (centres undefined)
-- reply 3.03 µM

-- ask Value lookup for TGI; key = OC1(c2ccc(Cl)cc2)c2c(ccc3c2OCO3)C2=NCCN21 (centres undefined)
-- reply > 100 µM

-- ask What does the data say about its TGI? Entry: COC(=O)C1CCOC(C)N1C(=O)OC(C)(C)C (centres undefined)
-- reply > 100 µM

-- ask Would you mind telling me what TGI value was observed for COc1ccc(/C(Cl)=C(/c2ccc(O)cc2)c2ccc(OCCN(C)C)cc2)cc1 ?
-- reply 23.8 µM

-- ask Given the molecule CN(C)CCN(C)CC1COC(C)(C)O1 (centres undefined) , what is its reported TGI?
-- reply > 100 µM

###

Measured TGI by item
- Tested on: CCRF-CEM leukemia
- procedure_details: NCI tumour cell line growth inhibition, 48 h

compound | TGI
O=[N+]([O-])c1ccccc1N=Nc1c(O)[nH]c2ccc(Br)cc12 | 31.9 µM
CC1=NOC2(C1)C(=O)Nc1ccccc12 (configuration not stated) | > 100 µM
COc1cccc(C2C3=C(COC3=O)N(CCO)c3cc(OC)ccc32)c1 (configuration not stated) | > 100 µM
COc1ccc2c(c1)=C(C=C1C=CN(O)C=C1)C(=O)N=2 | > 79.1 µM
[Cl][Sn]([Cl])([c]1ccccc1)[c]1ccccc1 | 5.76 µM

-- ask Would you kindly share the measured TGI for C/C(=C\c1ccccc1)C(=O)NCc1ccc(C(=O)NCCC(C)C)cc1 ?
-- reply > 100 µM

-- ask Please give the measured TGI for this compound: COC(=O)[C@@H]1C=C[C@H](OC2OC(COC(C)=O)C(OC(C)=O)C(OC(C)=O)C2OC(C)=O)n2c(=O)c3ccccc3c(=O)n21 (some centres not stated)
-- reply 24.9 µM

###

Reported TGI values follow for various compounds
- Test system: RPMI-8226 leukemia
- procedure_details: NCI tumour cell line growth inhibition, 48 h

Example cases with answers are listed next.
compound | target_under_test | TGI
C#CCNC(=O)NCCCC(NC(C)=O)C(=O)NCc1ccccc1 (stereo not given) | RPMI-8226 leukemia | > 100 µM
CS(=O)(=O)OCC1OC(n2ccc(NC(=O)c3ccccc3)nc2=O)CC1OS(C)(=O)=O (stereo not given) | RPMI-8226 leukemia | > 100 µM
O=C1Cc2c([nH]c3c(Cl)cccc23)-c2ccccc2N1 | RPMI-8226 leukemia | > 100 µM

-- ask I'd like to know its TGI. The compound in question is CN(C)CCC(O)(c1ccccc1)C(O)(CCN(C)C)c1ccccc1 (stereo not given)
-- reply > 100 µM

-- ask Name the recorded TGI for COc1cc2cc(C(=O)CCC(=O)O)sc2cc1OC .
-- reply > 100 µM

-- ask Record request: TGI value, item CC1=C(/C=C/C(=O)O)C(C)(C)CCC1
-- reply > 100 µM

-- ask // lookup TGI for CCOC(=O)/C(=N\OC)C(O)C(F)(F)F (stereo not given)
-- reply > 100 µM

-- ask Dear colleague, I am looking for the recorded TGI of the following compound: CC(C)(O)C#Cc1ccc(/C=C/C(=O)c2ccccc2)s1
-- reply 11.5 µM

-- ask Name the reported TGI value associated with the compound Nc1ccc2nc(NCc3ccc(F)cc3)cnc2c1
-- reply > 100 µM

###

- Tested on: SW-620 colon
- procedure_details: NCI tumour cell line growth inhibition, 48 h
Consider the following molecules and their measured TGI readings.

Worked cases, TGI given:
molecule | TGI
COc1ccc(NC(=O)CC(=O)N2N=C(c3ccccc3)C(N=Nc3ccc(S(=O)(=O)CCOS(=O)(=O)O)cc3)C2=O)cc1 (stereo not drawn) | > 100 µM
Cc1cc(NS(=O)(=O)c2ccc(NC(=O)c3ccc4[nH]c5ccccc5c(=O)c4c3)cc2)no1 | > 100 µM
CN(CCCCCl)P(=O)(OCc1ccc([N+](=O)[O-])o1)OCC1OC(n2ccc(N)nc2=O)C(F)(F)C1O (stereo not drawn) | > 100 µM
CC1=C(/C=C/C(=O)O)C(C)(C)CCC1 | > 100 µM
Nc1cc2c(nnn2C2OC(COCc3ccccc3)C(OCc3ccccc3)C2OCc2ccccc2)c(=O)[nH]1 (stereo not drawn) | > 100 µM
CCCCCc1nc2c(c3c1CCCC3)CCCC2 | 27.3 µM
CC(C)CCC[C@@H](C)[C@H]1CC[C@H]2[C@@H]3CC[C@H]4C[C@H](N)CC[C@]4(C)[C@H]3CC[C@]12C | > 100 µM
COc1cc2c(c(O)c1OC)C(O)C1CCC(=O)N1C2c1cccc2ccccc12 (stereo not drawn) | > 100 µM

Consider the additional molecule presented here.
-- ask Requested read-out TGI, target or system SW-620 colon, entry CCCOC(=O)C1CCC(=O)N1C(=O)C(C)Cl (stereo not drawn)
-- reply > 100 µM

###

- System: NCI/ADR-RES ovarian
- procedure_details: NCI tumour cell line growth inhibition, 48 h
assay_readout: TGI

-- ask # get_value(readout='TGI', item= Nc1cc(C(=O)O)[nH]c(=O)n1 )
-- reply > 100 µM

-- ask What TGI value was documented for this molecule, N=C(N)c1ccc(OCCOCCOc2ccc(C(=N)N)cc2)cc1 ?
-- reply > 100 µM

-- ask Which value of TGI has been reported for Clc1ccc(/C=C/c2cc(N3CCOCC3)c3cc(Cl)c(Cl)cc3n2)cc1 in the records?
-- reply > 100 µM

###

TGI overview
- Tested on: SN12C renal
- procedure_details: NCI tumour cell line growth inhibition, 48 h

compound | TGI
Cc1c(C#N)c2ccccc2c2nc3ccccc3n12 | > 100 µM

-- ask So what does the record say about TGI for COC(=O)c1cc2c3c(cc(N(C)C)c2[nH]1)N(C(=O)c1cc2cc(OC)c(OC)c(OC)c2[nH]1)CC3CCl (stereo unspecified) ?
-- reply 0.384 µM

-- ask Which TGI value is on record for Nc1ccc(-c2cssc2=S)cc1 ?
-- reply 94.6 µM

###

- Test system: MALME-3M melanoma
- procedure_details: NCI tumour cell line growth inhibition, 48 h
Overview of recorded TGI for various compounds

Answered examples (3):
compound | target_under_test | TGI
CN(C)CCN(C)CC1COC(C)(C)O1 (stereo unspecified) | MALME-3M melanoma | > 100 µM
CC(=O)O[C@]12CCCCC1C1(O)C(O)CCCCC12 (stereo partly specified) | MALME-3M melanoma | > 100 µM
CCCCCCNC(=O)c1cc(CCc2cc(O)ccc2O)ccc1O | MALME-3M melanoma | 6.47 µM

-- ask What measured TGI goes with COc1ccc(NC(=O)CC(=O)N2N=C(N(CCC#N)c3ccccc3Cl)CC2c2ccccc2)cc1 (stereo unspecified) ?
-- reply > 100 µM

-- ask Name the recorded TGI for COC(=O)[C@H](Cc1ccccc1)NC(=O)N1CCCN(C(=O)N[C@@H](Cc2ccccc2)C(=O)OC)CCCN(C(=O)N[C@@H](Cc2ccccc2)C(=O)OC)CCC1 .
-- reply 34.1 µM

-- ask Value lookup for TGI; key = N#CC(c1ccnc(Cl)n1)c1nc2ccccc2s1 (stereo unspecified)
-- reply > 26.5 µM
